# PROTOCOL_DETAILS: Absorption spectrum, emission spectrum and extinction coefficient in toluene solution
# Assay type: physicochemical
# RECORDED_CONDITIONS: at maximum absorption peak
REPORTED_METRIC: Molar extinction coefficient of the toluene solution (L/mol)
Give the value, in units of L/mol, as a plain number.

>>> experimental_value("Cc1cccc(C)c1N(c1ccc(C(C)(C)C)cc1)c1cc(N(c2ccc(C(C)(C)C)cc2)c2c(C)cccc2C)c2ccc3c(N(c4ccc(C(C)(C)C)cc4)c4c(C)cccc4C)cc(N(c4ccc(C(C)(C)C)cc4)c4c(C)cccc4C)c4ccc1c2c43 [Compound 4]")
30000
>>> experimental_value("CCCCCCCCc1ccc(N(c2ccc(C(C)C)cc2-c2cc(F)c(F)c(F)c2)c2cc(N(c3ccc(CCCCCCCC)cc3)c3ccc(C(C)C)cc3-c3cc(F)c(F)c(F)c3)c3ccc4c(N(c5ccc(CCCCCCCC)cc5)c5ccc(C(C)C)cc5-c5cc(F)c(F)c(F)c5)cc(N(c5ccc(CCCCCCCC)cc5)c5ccc(C(C)C)cc5-c5cc(F)c(F)c(F)c5)c5ccc2c3c54)cc1 [Compound 26]")
55000
>>> experimental_value("Cc1cccc(C)c1N(c1cc(C(C)(C)C)cc(C(C)(C)C)c1)c1cc(N(c2cc(C(C)(C)C)cc(C(C)(C)C)c2)c2c(C)cccc2C)c2ccc3c(N(c4cc(C(C)(C)C)cc(C(C)(C)C)c4)c4c(C)cccc4C)cc(N(c4cc(C(C)(C)C)cc(C(C)(C)C)c4)c4c(C)cccc4C)c4ccc1c2c43 [Compound 7]")
56000

q: Report Molar extinction coefficient of the toluene solution for Fc1cccc(F)c1N(c1ccccc1)c1cc(N(c2ccccc2)c2c(F)cccc2F)c2ccc3c(N(c4ccccc4)c4c(F)cccc4F)cc(N(c4ccccc4)c4c(F)cccc4F)c4ccc1c2c43 [Compound 17]
a: 18000

q: Report Molar extinction coefficient of the toluene solution for CCc1cccc(CC)c1N(c1ccc(C(C)(C)C)cc1)c1cc(N(c2ccc(C(C)(C)C)cc2)c2c(CC)cccc2CC)c2ccc3c(N(c4ccc(C(C)(C)C)cc4)c4c(CC)cccc4CC)cc(N(c4ccc(C(C)(C)C)cc4)c4c(CC)cccc4CC)c4ccc1c2c43 [Compound 11]
a: 53000

q: Report Molar extinction coefficient of the toluene solution for CC1CCC(C(C)C)C(Oc2ccc(-c3cc(C(C)C)ccc3N(c3cc(F)c(F)c(F)c3)c3cc(N(c4cc(F)c(F)c(F)c4)c4ccc(C(C)C)cc4-c4ccc(OC5CC(C)CCC5C(C)C)cc4)c4ccc5c(N(c6cc(F)c(F)c(F)c6)c6ccc(C(C)C)cc6-c6ccc(OC7CC(C)CCC7C(C)C)cc6)cc(N(c6cc(F)c(F)c(F)c6)c6ccc(C(C)C)cc6-c6ccc(OC7CC(C)CCC7C(C)C)cc6)c6ccc3c4c65)cc2)C1 (centres unmarked) [Compound 23]
a: 68000

q: Report Molar extinction coefficient of the toluene solution for CCCCCCCCc1ccc(-c2cc(N(c3ccc(C(C)(C)C)cc3)c3ccc(C(C)(C)C)cc3)ccc2N(c2cc(F)c(F)c(F)c2)c2cc(N(c3cc(F)c(F)c(F)c3)c3ccc(N(c4ccc(C(C)(C)C)cc4)c4ccc(C(C)(C)C)cc4)cc3-c3ccc(CCCCCCCC)cc3)c3ccc4c(N(c5cc(F)c(F)c(F)c5)c5ccc(N(c6ccc(C(C)(C)C)cc6)c6ccc(C(C)(C)C)cc6)cc5-c5ccc(CCCCCCCC)cc5)cc(N(c5cc(F)c(F)c(F)c5)c5ccc(N(c6ccc(C(C)(C)C)cc6)c6ccc(C(C)(C)C)cc6)cc5-c5ccc(CCCCCCCC)cc5)c5ccc2c3c54)cc1 [Compound 25]
a: 51000

q: Report Molar extinction coefficient of the toluene solution for CC(C)(C)c1ccc(N(c2ccccc2)c2cc(N(c3ccccc3)c3ccc(C(C)(C)C)cc3)c3ccc4c(N(c5ccccc5)c5ccc(C(C)(C)C)cc5)cc(N(c5ccccc5)c5ccc(C(C)(C)C)cc5)c5ccc2c3c54)cc1 [Compound 21]
a: 40000
